Values were extracted from paper PMC7293270.

# Protocol text: Plasma pharmacokinetics of sorafenib with RT, with or without CsA pretreatment, in freely moving rats
# Format: in vivo, Sprague-Dawley rats
# Details: Sprague-Dawley, rat, plasma, oral, 40 mg/kg, plasma, CsA 20 mg/kg i.p. + RT9Gy, sorafenib 40 mg/kg 1 hr later
Observed property: Tmax (h)

[[record]]
molecular_string = "CNC(=O)c1cc(Oc2ccc(NC(=O)Nc3ccc(Cl)c(C(F)(F)F)c3)cc2)ccn1"
observed_property = "Tmax"
result_unit = "h"
meas_value = 3.33


###

# Protocol text: Biliary excretion pharmacokinetics of Rho-123 after RT in freely moving rats
# Type: in vivo, Sprague-Dawley rats
# Details: Sprague-Dawley, rat, bile, iv, 0.2 mg/kg, biliary excretion, RT2Gy, Rho-123 24 hr later (sequential); read-out: t½
Observed property: half-life (min)

[[record]]
molecular_string = "COC(=O)c1ccccc1-c1c2ccc(=N)cc-2oc2cc(N)ccc12"
result_unit = "min"
meas_value = 32


###

# Protocol text: Biliary excretion pharmacokinetics of Rho-123 after RT in freely moving rats
# Type: in vivo, Sprague-Dawley rats
# Details: Sprague-Dawley, rat, bile, iv, 0.2 mg/kg, biliary excretion, sham RT, Rho-123 0.2 mg/kg i.v., rats; read-out: t½
Observed property: half-life

[[record]]
molecular_string = "COC(=O)c1ccccc1-c1c2ccc(=N)cc-2oc2cc(N)ccc12"
meas_value = "42 min"


###

# Protocol text: Organ distribution of sorafenib in rats
# Type: in vivo, Sprague-Dawley rats
# Details: Sprague-Dawley, rat, liver, po, 40 mg/kg
# Method: The brain, liver, heart, spleen, lung and kidney were collected and weighed. These collected samples were stored at −20 °C until analysis. Thawed organ samples were homogenized in 50% aqueous acetonitrile (sample weight:volume ratio, 1:5), and the homogenate was then centrifuged at 13000 × g for 10 min at 4 °C. The supernatant was collected, placed in brown Eppendorf tubes, and stored at −20 °C until analysis. […]
Observed property: concentration at 6 h (ng/g)

[[record]]
molecular_string = "CNC(=O)c1cc(Oc2ccc(NC(=O)Nc3ccc(Cl)c(C(F)(F)F)c3)cc2)ccn1"
result_unit = "ng/g"
meas_value = 4430


###

# Protocol text: Biliary excretion pharmacokinetics of Rho-123 after RT in freely moving rats
# Type: in vivo, Sprague-Dawley rats
# Details: Sprague-Dawley, rat, bile, iv, 0.2 mg/kg, biliary excretion, RT9Gy, Rho-123 10 min later (concurrent)
Observed property: Tmax (min)

[[record]]
compound = "COC(=O)c1ccccc1-c1c2ccc(=N)cc-2oc2cc(N)ccc12 [Rho-123, rhodamine 123]"
observed_property = "Tmax"
result_unit = "min"
meas_value = 11


###

# Protocol text: Plasma pharmacokinetics of sorafenib with RT, with or without CsA pretreatment, in freely moving rats
# Type: in vivo, Sprague-Dawley rats
# Details: Sprague-Dawley, rat, plasma, po, 40 mg/kg, RT2Gy, sorafenib 40 mg/kg 1 hr later
Observed property: Cmax

[[record]]
molecular_string = "CNC(=O)c1cc(Oc2ccc(NC(=O)Nc3ccc(Cl)c(C(F)(F)F)c3)cc2)ccn1"
observed_property = "Cmax"
meas_value = "10100 ng/mL"


###

# Protocol text: Biliary excretion pharmacokinetics of Rho-123 after RT in freely moving rats
# Assay type: in vivo, Sprague-Dawley rats
# Details: Sprague-Dawley, rat, bile, iv, 0.2 mg/kg, biliary excretion, RT9Gy, Rho-123 10 min later (concurrent); read-out: t½
Observed property: half-life (min)

[[record]]
compound = "COC(=O)c1ccccc1-c1c2ccc(=N)cc-2oc2cc(N)ccc12 [Rho-123, rhodamine 123]"
meas_value = 43


###

# Protocol text: Organ distribution of sorafenib in rats
# Format: in vivo, Sprague-Dawley rats
# Details: Sprague-Dawley, rat, brain, po, 40 mg/kg
Observed property: concentration at 6 h (ng/g)

[[record]]
molecular_string = "CNC(=O)c1cc(Oc2ccc(NC(=O)Nc3ccc(Cl)c(C(F)(F)F)c3)cc2)ccn1"
observed_property = "concentration at 6 h"
meas_value = 140


###

# Protocol text: Plasma pharmacokinetics of sorafenib with RT, with or without CsA pretreatment, in freely moving rats
# Format: in vivo, Sprague-Dawley rats
# Details: Sprague-Dawley, rat, plasma, po, 40 mg/kg, plasma, CsA 20 mg/kg i.p. + RT2Gy, sorafenib 40 mg/kg p.o. 1 hr later
Observed property: AUC(0-t)

[[record]]
compound = "CNC(=O)c1cc(Oc2ccc(NC(=O)Nc3ccc(Cl)c(C(F)(F)F)c3)cc2)ccn1 [sorafenib, Sorafenib]"
observed_property = "AUC(0-t)"
meas_value = "4630 ng·h/mL"


###

# Protocol text: Biliary excretion pharmacokinetics of Rho-123 after RT in freely moving rats
# Type: in vivo, Sprague-Dawley rats
# Details: Sprague-Dawley, rat, bile, iv, 0.2 mg/kg, biliary excretion, RT9Gy, Rho-123 24 hr later (sequential)
Observed property: clearance (mL/min/kg)

[[record]]
molecule = "COC(=O)c1ccccc1-c1c2ccc(=N)cc-2oc2cc(N)ccc12 [Rho-123, rhodamine 123]"
observed_property = "clearance"
meas_value = 1.91


###

# Protocol text: Biliary excretion pharmacokinetics of Rho-123 after RT in freely moving rats
# Format: in vivo, Sprague-Dawley rats
# Details: Sprague-Dawley, rat, bile, iv, 0.2 mg/kg, biliary excretion, RT9Gy, Rho-123 24 hr later (sequential); read-out: t½
Observed property: half-life

[[record]]
molecular_string = "COC(=O)c1ccccc1-c1c2ccc(=N)cc-2oc2cc(N)ccc12"
meas_value = "34 min"


###

# Protocol text: Biliary excretion pharmacokinetics of Rho-123 after RT in freely moving rats
# Assay type: in vivo, Sprague-Dawley rats
# Details: Sprague-Dawley, rat, bile, iv, 0.2 mg/kg, biliary excretion, RT2Gy, Rho-123 24 hr later (sequential)
Observed property: MRT (min)

[[record]]
compound = "COC(=O)c1ccccc1-c1c2ccc(=N)cc-2oc2cc(N)ccc12 [Rho-123, rhodamine 123]"
meas_value = 47


###

# Protocol text: Plasma pharmacokinetics of sorafenib with RT, with or without CsA pretreatment, in freely moving rats
# Type: in vivo, Sprague-Dawley rats
# Details: Sprague-Dawley, rat, plasma, po, 40 mg/kg, RT2Gy, sorafenib 40 mg/kg 24 hr later
Observed property: Cmax (ng/mL)

[[record]]
molecular_string = "CNC(=O)c1cc(Oc2ccc(NC(=O)Nc3ccc(Cl)c(C(F)(F)F)c3)cc2)ccn1"
result_unit = "ng/mL"
meas_value = 1890


###

# Protocol text: Biliary excretion pharmacokinetics of Rho-123 after RT in freely moving rats
# Type: in vivo, Sprague-Dawley rats
# Details: Sprague-Dawley, rat, bile, iv, 0.2 mg/kg, biliary excretion, sham RT, Rho-123 0.2 mg/kg i.v., rats
Observed property: MRT (h)

[[record]]
molecular_string = "COC(=O)c1ccccc1-c1c2ccc(=N)cc-2oc2cc(N)ccc12"
meas_value = 1.02


###

# Protocol text: Biliary excretion pharmacokinetics of Rho-123 after RT in freely moving rats
# Assay type: in vivo, Sprague-Dawley rats
# Details: Sprague-Dawley, rat, bile, iv, 0.2 mg/kg, biliary excretion, RT9Gy, Rho-123 24 hr later (sequential)
Observed property: Tmax (min)

[[record]]
molecular_string = "COC(=O)c1ccccc1-c1c2ccc(=N)cc-2oc2cc(N)ccc12"
meas_value = 13


###

# Protocol text: Biliary excretion pharmacokinetics of Rho-123 after RT in freely moving rats
# Type: in vivo, Sprague-Dawley rats
# Details: Sprague-Dawley, rat, bile, iv, 0.2 mg/kg, biliary excretion, RT9Gy, Rho-123 10 min later (concurrent)
Observed property: MRT (h)

[[record]]
molecular_string = "COC(=O)c1ccccc1-c1c2ccc(=N)cc-2oc2cc(N)ccc12"
observed_property = "MRT"
meas_value = 1.1


###

# Protocol text: Plasma pharmacokinetics of sorafenib with RT, with or without CsA pretreatment, in freely moving rats
# Format: in vivo, Sprague-Dawley rats
# Details: Sprague-Dawley, rat, plasma, po, 40 mg/kg, RT2Gy, sorafenib 40 mg/kg p.o. 1 hr later
Observed property: AUC(0-t) (ng·h/mL)

[[record]]
molecular_string = "CNC(=O)c1cc(Oc2ccc(NC(=O)Nc3ccc(Cl)c(C(F)(F)F)c3)cc2)ccn1"
observed_property = "AUC(0-t)"
meas_value = 27800


###

# Protocol text: Plasma pharmacokinetics of sorafenib with RT, with or without CsA pretreatment, in freely moving rats
# Format: in vivo, Sprague-Dawley rats
# Details: Sprague-Dawley, rat, plasma, po, 40 mg/kg, sorafenib 40 mg/kg p.o. only (sham RT), rats
Observed property: Cmax

[[record]]
molecular_string = "CNC(=O)c1cc(Oc2ccc(NC(=O)Nc3ccc(Cl)c(C(F)(F)F)c3)cc2)ccn1"
observed_property = "Cmax"
meas_value = "4390 ng/mL"


###

# Protocol text: Plasma pharmacokinetics of sorafenib with RT, with or without CsA pretreatment, in freely moving rats
# Format: in vivo, Sprague-Dawley rats
# Details: Sprague-Dawley, rat, plasma, po, 40 mg/kg, RT9Gy, sorafenib 40 mg/kg 24 hr later
Observed property: Cmax

[[record]]
compound = "CNC(=O)c1cc(Oc2ccc(NC(=O)Nc3ccc(Cl)c(C(F)(F)F)c3)cc2)ccn1 [sorafenib, Sorafenib]"
observed_property = "Cmax"
meas_value = "8690 ng/mL"

